Assay info: NCI Yeast Anticancer Drug Screen. Data for the rad50 strain (AID 155);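 also: 0% = growth of vehicle-only cultures of the same strain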
Applied conditions: S. cerevisiae rad50 strain growth inhibition; at 50.0 µM; active compounds read high
This is part of a sample that, as a whole, favours compounds with a hit. Of some 79,000 tested, about 15% had one in any assay.
Measurement name: growth inhibition (%)
Please reply with the bare figure in % and do not write the unit itself.

Illustrative cases are given below, each with its answer.
- CC(=O)OCCS(=O)Cc1ccccc1 (stereo not drawn): -36.9
- COc1ccc(N2C=Nn3c(nc4sc(C)c(C)c4c3=O)C2)cc1: 7
- CCOC(=O)/C(=C\n1c(=S)[nH]c2cc(C)ccc21)C(=O)c1ccccc1: -41.2
- COc1cc(NS(C)(=O)=O)ccc1Nc1c2ccccc2nc2c1[nH]c1ccc(NC3OC(CO)C(O)C(O)C3O)cc12 (stereo not drawn): 53.8

Prompt line: Which growth inhibition value is on record for C=C(C(=O)NC1CCCCC1)c1ccccc1 ?
Response line: -9.2

Prompt line: Which growth inhibition value is on record for COc1cc(C(C#N)NNC(=O)Cc2ccccc2)cc(OC)c1OC (stereo not drawn) ?
Response line: -18.9

Prompt line: Which growth inhibition value is on record for CN1CCc2nc(N)nc(-c3nc(N)nc4c3CN(C)CC4)c2C1 ?
Response line: -3.15

Prompt line: Which growth inhibition value is on record for CC(O)COC1CCCCC1 (stereo not drawn) ?
Response line: -2.75

----------
Below, each entry is listed with its recorded growth inhibition.
Assay info: NCI Yeast Anticancer Drug Screen. Data for the bub3 strain (AID 167)
Applied conditions: S. cerevisiae bub3 mutant strain, at 50.0 µM, active compounds read high
Protocol: Growth inhibition of yeast strains with defined genetic alterations is measured as a screen for potential anti-cancer activity. Selected strains with alterations in DNA damage repair or cell cycle control were exposed to compounds and growth inhibition was measured relative to vehicle treated controls. The strain used in this assay is bub3
The panel holds about 79,000 compounds, 15% with a hit somewhere; the sample as a whole holds those more often.
Please reply with the bare figure in % and do not write the unit itself.

Prompt line: Which growth inhibition value is on record for CCOP(C)(=O)C(Cc1c[nH]c2ccccc12)C(=O)O (centres undefined) ?
Response line: -12.8

Prompt line: Which growth inhibition value is on record for COc1ccc(NC(=O)CC#N)cc1 ?
Response line: -3.25

Prompt line: Which growth inhibition value is on record for COc1ccc(Cc2cc3c(cc2OCCOC(C)=O)OCO3)cc1 ?
Response line: 15.2

Prompt line: Which growth inhibition value is on record for COc1ccc(C(c2ccccc2)c2ccc(OC)cc2)cc1 ?
Response line: 37.7

Prompt line: Which growth inhibition value is on record for CCOC1(c2ccccc2)NC(=O)NC1(OCC)c1ccccc1 (centres undefined) ?
Response line: 0.05

Prompt line: Which growth inhibition value is on record for CCCCC(C(N)=O)C(C)(C)C(=O)O (centres undefined) ?
Response line: 9.85

Prompt line: Which growth inhibition value is on record for CC(=O)OC12c3ccccc3C(c3ccccc31)C1C(=O)N(c3ccccn3)C(=O)C12 (centres undefined) ?
Response line: 9.9

Prompt line: Which growth inhibition value is on record for CCS(=O)CCO (centres undefined) ?
Response line: 10.8

Prompt line: Which growth inhibition value is on record for C=Cc1ccccc1NC(C(=O)O)c1ccccc1 (centres undefined) ?
Response line: 7.2

Prompt line: Which growth inhibition value is on record for Nc1ccc(C(=O)N/N=C/C=C/c2ccccc2)cc1 ?
Response line: 30.4

----------
Assay info: NCI Yeast Anticancer Drug Screen. Data for the cln2 rad14 strain (AID 165);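 also: 0% = growth equal to vehicle treated cultures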
Applied conditions: S. cerevisiae cln2 rad14 strain, at 50.0 µM
Compounds without any hit were thinned out: in the full panel of roughly 79,000, 15% have a hit. The source made the active and inactive calls. Rule as the data show it: active = growth inhibition above about 70%; inactive = the rest.
Entry note: the call must match one of active, inactive

For orientation, consider the following solved cases.
• COC1C2C[C@@H](O)CCC2C(C(=O)OCCl)C[C@H]1O (stereo partly specified) = inactive
• CCO/N=C(/N)c1ncn(Cc2ccccc2)c1NCC(OCC)OCC = inactive
• CCOC(=O)CCC(NC1=C(Cl)C(=O)c2ccccc2C1=O)C(=O)O (stereo unspecified) = inactive
• Nc1ccc(C(=O)O)c(N)c1 = inactive

Prompt line: For CCCC(=O)OC1C=C2N3C(=O)C4CC56C(=CC(OC(C)=O)C7OC75)N4C(=O)C3CC26C2OC12 (stereo unspecified) , which call appears in the assay record?
Response line: active

Prompt line: For COc1ccc2c(=O)c([Se]c3coc4cc(OC)ccc4c3=O)coc2c1 , which call appears in the assay record?
Response line: inactive

----------
Assay info: NCI Yeast Anticancer Drug Screen. Data for the mec2-1 strain (AID 157)
Applied conditions: S. cerevisiae mec2-1 strain, at 50.0 µM, active compounds read high
Compounds without any hit were thinned out: in the full panel of roughly 79,000, 15% have a hit.
Measurement name: growth inhibition (%)
Please reply with the bare figure in % and do not write the unit itself.

Prompt line: Which growth inhibition value is on record for CC1OC(=O)C(O)=C1O (centres undefined) ?
Response line: -10.6

Prompt line: Which growth inhibition value is on record for C#Cc1cccc(N=Cc2cc(Cl)cc(C)c2O)c1 ?
Response line: 10.8

----------
Below, each entry is listed with its recorded growth inhibition.
Assay info: NCI Yeast Anticancer Drug Screen. Data for the rad50 strain (AID 155);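 also: 0% = growth of vehicle-only cultures of the same strain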
Applied conditions: S. cerevisiae rad50 strain growth inhibition; at 50.0 µM; active compounds read high
The panel holds about 79,000 compounds, 15% with a hit somewhere; the sample as a whole holds those more often.
Please reply with the bare figure in % and do not write the unit itself.

- O=C(C(=Cn1c(=O)cc[nH]c1=S)C(=O)c1ccccc1)c1ccccc1: -14.7
- NC(=O)C(C1=CCCCC1)c1ccccc1 (configuration not stated): 3.25
- COc1cc(NC(=O)CCN2CCOCC2)c2ncccc2c1: 41.6
- O=C(CSc1nnc(Cc2ccccc2)o1)Nc1cccc([N+](=O)[O-])c1: 20.6
- CN(C)c1ncnc2c1ncn2C1OC(CO)C(O)C1O (configuration not stated): 14.2
- CC1OC(OC2CCc3c(O)c4c(c(O)c3C2)C(=O)c2ccccc2C4=O)CC(N)C1O (configuration not stated): 5.25
- Cc1ccc(S(=O)(=O)OCC(C)(C)CC#N)cc1: 10.9
- O=[N+]([O-])c1ccc(I)c(I)c1: -20.8

Prompt line: Which growth inhibition value is on record for CC(C)NC(=O)/C=C/C(=O)O ?
Response line: -16.1

Prompt line: Which growth inhibition value is on record for COc1ccc(Br)cc1C1SCC(=O)N1c1nncs1 (configuration not stated) ?
Response line: 12

Prompt line: Which growth inhibition value is on record for CC1(O)CCC(O)CC1CC[N+](C)(C)[O-] (configuration not stated) ?
Response line: 7.35

Prompt line: Which growth inhibition value is on record for Cc1cccc(/C=N/Nc2ccc([N+](=O)[O-])cc2[N+](=O)[O-])c1C ?
Response line: 11.2

----------
Below, each entry is listed with its recorded growth inhibition.
Assay info: NCI Yeast Anticancer Drug Screen. Data for the sgs1 mgt1 strain (AID 161);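 also: 0% = growth of cultures given vehicle only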
Applied conditions: S. cerevisiae sgs1 mgt1 strain, at 50.0 µM, active compounds read high
Compounds without any hit were thinned out: in the full panel of roughly 79,000, 15% have a hit. The source made the active and inactive calls. No stated cut-off is given here; in the data, active means growth inhibition above about 70%; inactive means the rest.

Illustrative cases are given below, each with its answer.
- O=C(Nc1ccc(Cl)cc1)c1cccnc1: 32.8% (inactive)
- O=C1NC2(CCN(CCc3ccccc3)CC2)Oc2ccccc21: 15.7% (inactive)
- CC(=N\N=C\c1ccccn1)/C(C)=N/N=C(C)/C(C)=N/N=C/c1ccccn1: 7.9% (inactive)
- Cc1cc2oc3c(c2c(=O)[nH]1)C(=O)c1ccccc1C3=O: -8% (inactive)
- CCOc1ccccc1NC(=O)C(=O)c1c(O)c2ccc(O)cc2oc1=O: 4.8% (inactive)

Prompt line: Which growth inhibition value is on record for COc1ccc2[nH]c3c(c2c1)[C@H](c1ccccc1)C[C@@H]1C(=O)N(c2ccccc2)C(=O)[C@H]31 ?
Response line: 1.75% (inactive)

Prompt line: Which growth inhibition value is on record for NC(=O)c1cc2ccccc2[n+](Cc2ccc(F)cc2)c1 ?
Response line: 6.45% (inactive)

Prompt line: Which growth inhibition value is on record for O=C1/C(=C2\CCc3ccccc32)Cc2ccccc21 ?
Response line: -4.2% (inactive)

Prompt line: Which growth inhibition value is on record for O=C(NCC1=NCCN1)c1ccccc1 ?
Response line: -13.7% (inactive)

Prompt line: Which growth inhibition value is on record for COc1cc(C(=O)Nc2cccc3ccccc23)c(Br)c(OC)c1OC ?
Response line: 39.5% (inactive)

Prompt line: Which growth inhibition value is on record for NCCCN=c1ccc2c3c1c(O)c1c(O)ccc(=O)c1c3[nH]n2CCNCCO ?
Response line: 33.3% (inactive)

----------
Assay info: NCI Yeast Anticancer Drug Screen. Data for the rad50 strain (AID 155);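 also: 0% = growth of vehicle-only cultures of the same strain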
Applied conditions: S. cerevisiae rad50 strain growth inhibition; at 50.0 µM; active compounds read high
Compounds without any hit were thinned out: in the full panel of roughly 79,000, 15% have a hit.
Measurement name: growth inhibition (%)
Please reply with the bare figure in % and do not write the unit itself.

• C=CCOC(=O)c1ccco1 = 5.6
• COc1cc2c(cc1O)CCN[C@@]21CS[C@H]2c3c(OC(C)=O)c(C)c4c(c3C(COC1=O)N1C2C2NC(Cc3cc(C)c(OC)c(O)c32)[C@@H]1O)OCO4 (stereo not given in full) = 91.5
• CCCCCCCC[N+]1([O-])CC[N+](C)([O-])CC1 (stereo not given) = 3.9
• ONc1cnc2ccccc2n1 = -34.9
• COc1ccc(-c2c3nc(c(-c4ccc(OC)cc4)c4[n-]c(c(-c5ccc(OC)cc5)c5nc(c(-c6ccc(OC)cc6)c6[n-]c2c2ccccc62)-c2ccccc2-5)c2ccccc42)-c2ccccc2-3)cc1.[Zn+2] = -21.1

Please examine the following record next.
Prompt line: Which growth inhibition value is on record for CC(C)NC(=O)OCc1nnn2c1CCC2 ?
Response line: -6.9
